Reported Ki values, Adenosine receptor A1 (Homo sapiens).
OBSERVABLE: Ki (nM)

CCCn1c(Oc2ccc(F)c(F)c2)nc2nc(C3CCCC3)[nH]c2c1=O
2
CCCn1c(Oc2cccc(C(F)(F)F)c2)nc2nc(C3CCCC3)[nH]c2c1=O
2

====

# TARGET UNDER TEST: Adenosine receptor A3 (Homo sapiens, UniProt P0DMS8)
# Sequence (P0DMS8 whole entry): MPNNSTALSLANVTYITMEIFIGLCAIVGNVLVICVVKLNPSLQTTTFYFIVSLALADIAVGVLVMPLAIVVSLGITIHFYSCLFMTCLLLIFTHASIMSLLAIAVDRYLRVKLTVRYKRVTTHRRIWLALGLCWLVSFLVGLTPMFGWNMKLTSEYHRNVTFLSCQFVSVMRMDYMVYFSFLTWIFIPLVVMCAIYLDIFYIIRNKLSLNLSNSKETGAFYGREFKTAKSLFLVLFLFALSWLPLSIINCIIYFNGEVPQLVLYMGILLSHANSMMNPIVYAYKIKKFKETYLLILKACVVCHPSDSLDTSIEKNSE
OBSERVABLE: Ki (nM)

CC(C)n1cc2c(Cl)nc(N(C(=O)c3ccccc3)C(=O)c3ccccc3)nc2n1
900

1: COc1ccc(C(=O)Nc2nc(-c3ccccc3)c(C(=O)c3ccc(C)cc3)s2)cc1
2: Cc1nc(NC(=O)c2ccccc2)c2nn(-c3ccccc3)cc2n1
3: CCOC(=O)c1nc(NC(=O)c2ccc(C(F)(F)F)cc2)nc2nn(C(C)(C)C)cc12
QUERY: // ranking: key=Ki, reverse=True Reply: labels, ordered per the request.
RESULT: 3, 2, 1
(3: 1300 nM, 2: 24 nM, 1: 4.63 nM)

====

# ASSAY DETAILS: in vivo
# TEST SETTINGS: plasma
# Description: Cmax in plasma (unknown origin)
OBSERVABLE: Cmax (µM)
Express it in µM; write the number only.

QUERY: Please list Cmax recorded for the compound `Cc1ccc(-c2nc(N)c3cc(Cc4ccccc4)sc3n2)o1`
RESULT: 5
